Assay Overview: Quantitative High-Throughput drug screen in 47 multiple myeloma cell lines against the NCATS MIPE library collection: KMS11_JCRBsus cell viability assay (AID 1919873); also: nearly all actives have a fitted effect of over 50% in size
Condition Summary: KMS11 myeloma viability, CellTiter-Glo ATP luminescence, 48 h; series mostly up to 45.8 µM
Records with an inconclusive call do not appear. The source made the active and inactive calls. Calls follow the shape of the dose curve; as a rule, active = well fitted cell-killing curve with a large enough effect; inconclusive = small, poorly fitted or top-dose-only effect, or effect the other way; inactive = no such curve, though single readings can be large or run the other way.
Log the outcome using a class from y (active), n (inactive)

COc1ccc(OC)c(-c2nnc3ccc(-c4ccc(OC)c(O[C@@H]5CCOC5)c4)nn23)c1 | y
CCCCc1nc2cc(C=CC(=O)NO)ccc2n1CCN(CC)CC | y
CC(C)(C)OC(=O)Nc1ccc(-c2cc(C(=O)NCCCCCCC(=O)NO)no2)cc1 | y
CC(C)c1cc(-c2n[nH]c(=O)n2-c2ccc3c(ccn3C)c2)c(O)cc1O | y
CCOc1cc2ncc(C#N)c(Nc3ccc(F)c(Cl)c3)c2cc1NC(=O)C=CCN(C)C | y

Each compound tested received a call. Report the one for CNC(=O)c1ccc(-c2cnc3ncc(Cc4ccc5ncccc5c4)n3n2)cc1F .
n

Consider next the compound COc1cc2ncnc(Nc3ccc(F)c(Cl)c3)c2cc1NC(=O)C=CCN1CCCCC1 in the same way.
y

Would you mind doing Cc1nc(Nc2n[nH]c3c2CN(C(=O)N[C@H](CN(C)C)c2ccccc2)C3(C)C)c2sccc2n1 as well?
y

Now try Cc1ccc2nc(NC(=O)CSc3nc4c(c(=O)n3-c3ccccc3)SCC4)sc2c1 .
y

---

Assay Overview: Quantitative High-Throughput drug screen in 47 multiple myeloma cell lines against the NCATS MIPE library collection: EJM_DSMZ cell viability assay (AID 1918926; also: nearly all actives have a fitted effect of over 30% in size)
Condition Summary: EJM myeloma cell viability, CellTiter-Glo ATP, 48 h; series mostly up to 45.8 µM
Inconclusive results are not listed. Calls of active or inactive are those of the source. Calls follow the shape of the dose curve; as a rule, active = well fitted cell-killing curve with a large enough effect; inconclusive = small, poorly fitted or top-dose-only effect, or effect the other way; inactive = no such curve, though single readings can be large or run the other way.
// one of active, inactive, no free text

CN(C1CCc2c(c3ccccc3n2CC(=O)O)C1)S(=O)(=O)c1ccc(F)cc1 (centres undefined) | active
CN1CC[C@@H](c2c(O)cc(O)c3c(=O)cc(-c4ccccc4Cl)oc23)[C@@H](O)C1 | active
O=C(Nc1cn[nH]c1-c1nc2ccc(CN3CCOCC3)cc2[nH]1)NC1CC1 | active
Cc1ccc(C(=O)Nc2ccc(CN3CCN(C)CC3)c(C(F)(F)F)c2)cc1C#Cc1cnc2cccnn12 | active
Nc1nc(-c2nn(Cc3ccccc3F)c3ncccc23)nc(N)c1N1CCOCC1 | inactive

Here is another molecule to look at.
How was CC(=O)Nc1nc(C)c(-c2ccc(Cl)c(S(=O)(=O)NCCO)c2)s1 classified in this test?
active

---

Assay Overview: Quantitative High-Throughput drug screen in 47 multiple myeloma cell lines against the NCATS MIPE library collection: Delta47_JCRB cell viability assay (AID 1918925; also: potency is read from the fitted curve at half-maximal effect; nearly all actives have a fitted effect of over 45% in size)
Condition Summary: Delta47 myeloma viability, CellTiter-Glo ATP, 48 h; series mostly up to 45.8 µM
Results filed as inconclusive are left out. Calls of active or inactive are those of the source. Calls follow the shape of the dose curve; as a rule, active = well fitted cell-killing curve with a large enough effect; inconclusive = small, poorly fitted or top-dose-only effect, or effect the other way; inactive = no such curve, though single readings can be large or run the other way.
Reported Endpoint: Potency

Before answering, review these 3 worked examples.
CN(C)CC(C)(C)CNc1nn2c(-c3ccccc3)nnc2cc1C1CCC1 | 13200 nM (active)
CN1CCN(Cc2ccc(NC(=O)Nc3ccc(Oc4cc(NC(=O)C5CC5)ncn4)cc3)cc2C(F)(F)F)CC1 | 148 nM (active)
Cc1c(NC(=O)OC[C@@H]2COCCN2)cn2ncnc(Nc3ccc4c(cnn4Cc4cccc(F)c4)c3)c12 | 833 nM (active)

Dear colleague, I am looking for the recorded Potency of the following compound: CC1=C(CO)C(=O)O[C@@H]([C@@H](C)[C@H]2CC[C@H]3[C@@H]4C[C@H]5O[C@]56[C@@H](O)C=CC(=O)[C@]6(C)[C@@H]4CC[C@]23C)C1
148 nM (active)
